# Test system: HS 578T breast
# assayNotes: NCI-60 one-dose screen, 48 h (100 = growth as untreated, 0 = no growth, -100 = all killed)
# particulars: 10 µM
# Description: Growth inhibition of the HS 578T human tumor cell line is measured as a screen for anti-cancer activity. Cells are grown in 96 well plates and exposed to the test compound for 48 hours. Compounds are tested at a single concentration, which is 10^-5 M for most compounds. The reported endpoint is percent growth (GI% or GIPRCNT), where numbers from 0 - 100% represent growth inhibition, and numbers from -100% - 0 represent cell death. For example, a value of 40 represents 60% growth inhibition. […]
Compounds without any hit were thinned out: in the full panel of roughly 83,000, 20% have a hit.
# maps each entry to its growth
Write the answer as a number in %, unit excluded.

Use the examples below as a reference point.
O=C1OCC2=C1C(c1cccc(Cl)c1)c1cc3c(cc1N2CCO)OCO3 (stereo not drawn)
-5.17
O=C(Nc1ccncc1)C(=O)c1cn(S(=O)(=O)c2cccc3ccccc23)c2ccccc12
100
CC(C)(C)c1cc(Br)cc(C(C)(C)C)c1O
120
Nc1c(C(=O)Nc2ccccc2)sc2nc3c(cc12)C(O)CCC3 (stereo not drawn)
39.6
O=c1c2ccccc2nc(SCCN2CCCCC2)n1CCc1ccccc1
93.9
CC(C)C[C@H](NC(=O)[C@H](Cc1cccc2ccccc12)NS(=O)(=O)c1cccc2cccnc12)B(O)O
-18.8
CCCCCCCNc1nc(C=O)ncc1-c1ccc(C(F)(F)F)cc1
107
N=C(N)c1ccc(-c2ccc(-c3cccs3)s2)cc1
104
CCOC(=O)c1ccoc1
100
COc1cc(C2CC(c3ccc(Nc4ccnc5cc(Cl)ccc45)cc3)=NN2c2ccc(Cl)cc2)cc(OC)c1OC (stereo not drawn)
61.6

Lab request: please report growth under test system HS 578T breast for "COc1ccc2c(c1)/C(=C\c1c[nH]c3ccc(OC)cc13)C(=O)N2"
46.9

Now the compound "CCC(=O)N1C/C(=C/c2ccc(Br)cc2)C(=O)/C(=C/c2ccc(Br)cc2)C1"
9.3

Now the compound CCCCCCN(CCCCCC)CC(O)c1ccc2c3c(cccc13)CC2 (stereo not drawn)
69.1

Now the compound "COc1cc(C(=O)/C=C/c2cc(-c3cc(OC)c(OC)c(OC)c3)n[nH]2)cc(OC)c1OC"
62.4

Now the compound "CSc1nc(=O)n(Cc2ccc(Cl)cc2)c(=O)[nH]1"
105

Now the compound "Cc1ccc(NC(=O)Nc2cccnc2)cc1NC(=O)Nc1cccnc1"
95.7

Now the compound "O=C1/C(=C\c2ccc(F)cc2)CN(C(=O)c2ccc([N+](=O)[O-])cc2)C/C1=C\c1ccc(F)cc1"
-9.57

Now the compound "C/C(=N\Nc1nc2ccccc2s1)c1ccncn1"
73.5

----------
# maps each entry to its growth
# Tested on: SF-268 CNS
# assayNotes: NCI-60 one-dose screen, 48 h (100 = growth as untreated, 0 = no growth, -100 = all killed)
# particulars: 10 µM
# Experimental: Cells are grown in 96 well plates and exposed to the test compound for 48 hours. Compounds are tested at a single concentration, which is 10^-5 M for most compounds. The reported endpoint is percent growth (GI% or GIPRCNT), where numbers from 0 - 100% represent growth inhibition, and numbers from -100% - 0 represent cell death. For example, a value of 40 represents 60% growth inhibition. A value of 0 means no net growth occurred over the course of the experiment. […]
This is part of a sample that, as a whole, favours compounds with a hit. Of some 83,000 tested, about 20% had one in any assay.
Write the answer as a number in %, unit excluded.

COc1ccccc1CNCCCN1C(=O)c2ccc3c4c(ccc(c24)C1=O)C(=O)N(CCCN)C3=O
-22.1
C[C@@H]1C=C2C(=O)O[C@@H]3CC[C@H](C1)[C@]23O
93.3
Fc1cc(C(F)(F)F)ccc1-c1cncnc1NC1CCCCCC1
115
O=C(Nc1cccc(-n2cc(-c3ccncc3)c(-c3ccc(O)c(Cl)c3)n2)c1)c1cccc(C(F)(F)F)c1
51.7
O=S(=O)(Nc1ccccn1)c1ccc(N=Nc2ccc(O)c3ncccc23)cc1
25

Lab request: please report growth under test system SF-268 CNS for "COc1ccc(/C=C/C(=O)Nc2ccc(-c3nc4ccc(OC)cc4s3)cc2)cc1"
116

----------
# System: RPMI-8226 leukemia
# assayNotes: NCI-60 one-dose screen, 48 h (100 = growth as untreated, 0 = no growth, -100 = all killed)
# particulars: 10 µM
This is part of a sample that, as a whole, favours compounds with a hit. Of some 83,000 tested, about 20% had one in any assay.
# maps each entry to its growth
Write the answer as a number in %, unit excluded.

CCCCCCCCCCCCCC[n+]1ccc(C(N)=O)cc1
-41.2

Lab request: please report growth under test system RPMI-8226 leukemia for "Cc1cc(=O)n2nnc3c4ccccc4ccc3n12"
8.01

Now the compound "ClCCOCCn1cnc2c(Cl)nc(Cl)nc21"
93.1

Now the compound "CN(C)C=Nc1cc(Cl)ccc1Cl"
98.9

Now the compound "COc1ccc(-c2nc(-c3nc4ccc(OC)cc4[nH]3)cc3c2[nH]c2ccccc23)cc1"
-28.2

Now the compound "COc1ccc(-c2cc(/C=C/C(=O)c3cc(OC)c(OC)c(OC)c3)[nH]n2)cc1OC"
-39.1

----------
# System: CCRF-CEM leukemia
# assayNotes: NCI-60 one-dose screen, 48 h (100 = growth as untreated, 0 = no growth, -100 = all killed)
# particulars: 10 µM
About 83,000 compounds went through this panel and 20% of them were active in at least one assay; those are over-represented in the sample as a whole.
Lab note: anything with growth at or over 80% counts as class 1; the rest go in class 0.

A selection of reference data follows.
COc1ccc2c(c1)-c1c(c3cc(OC)ccc3n(CCN(C)C)c1=O)C2=O
class 0
N=C(N)c1ccc(-c2ccc(-c3ccccc3)o2)nc1
class 1
CCCC#CCN(CC)CC
class 1
COc1ccc(Nc2ncnc3c2c(SC)nn3-c2ccccc2)cc1
class 1

Next, consider the following compound.
Form field: growth at least 80%? Entry: "COc1ccc(-c2ccc(-c3ccc(C(=N)N)cn3)o2)cc1"
class 0

----------
# Test system: OVCAR-3 ovarian
# assayNotes: NCI-60 one-dose screen, 48 h (100 = growth as untreated, 0 = no growth, -100 = all killed)
# particulars: 10 µM
About 83,000 compounds went through this panel and 20% of them were active in at least one assay; those are over-represented in the sample as a whole.
readoutType: growth (%)
Write the answer as a number in %, unit excluded.

Use the examples below as a reference point.
O=C(Nc1cccc(-n2cc(-c3ccncc3)c(-c3ccc(O)c(Cl)c3)n2)c1)Nc1ccc(Cl)c(Cl)c1
-16.5
COc1ccc(C2=Nc3c(C)nn(-c4ccccc4)c3NC(c3ccc(Oc4ccnc5cc(Cl)ccc45)c(OC)c3)C2)cc1 (stereo not given)
79.9
CSc1cc(SC)ncn1
124
CCN1CCC(CCOC)(CN2c3ccccc3Sc3ccc(Cl)cc32)C1 (stereo not given)
64.8

# next compound below
Bench note: what growth did "COc1ccccc1CNCCCN1C(=O)c2ccc3c4c(ccc(c24)C1=O)C(=O)N(CCCN)C3=O" show?
-27.8

----------
# Test system: RPMI-8226 leukemia
# assayNotes: NCI-60 one-dose screen, 48 h (100 = growth as untreated, 0 = no growth, -100 = all killed)
# particulars: 10 µM
Compounds without any hit were thinned out: in the full panel of roughly 83,000, 20% have a hit.
# maps each entry to its growth
Write the answer as a number in %, unit excluded.

Use the examples below as a reference point.
CCOCC(=O)C(C#N)c1ccc(Cl)c(Cl)c1 (stereo unspecified)
88.9
Nc1c(C(=O)Nc2ccccc2Cl)sc2nc3c(cc12)C(=O)CCC3
87.9
COc1cc(-c2nc(Nc3nc4ccccc4s3)[nH]c(=O)c2C#N)cc(OC)c1O
89.9

Bench note: what growth did "COc1ccc(OC)c(NC(=O)c2sc3nc4c(cc3c2N)C(=O)CCC4)c1" show?
95.8

Now the molecule "CCCC#CCN(CC)CC"
105

Now the molecule "CC(=O)O[C@]1(C)CC[C@H]2[C@H](CNCCc3ccc(Cl)cc3)C(=O)O[C@@H]2C2=C(C)C(=O)C[C@H]21"
64.7

----------
# Test system: CAKI-1 renal
# assayNotes: NCI-60 one-dose screen, 48 h (100 = growth as untreated, 0 = no growth, -100 = all killed)
# particulars: 10 µM
Compounds without any hit were thinned out: in the full panel of roughly 83,000, 20% have a hit. Active and inactive are the calls of the source. Rule for the calls: active = growth percent below 10; inactive = the rest.
readoutType: growth

Use the examples below as a reference point.
CSc1cc(SC)ncn1
106% (inactive)
CCC(=O)N1C/C(=C/c2ccc(Cl)cc2)C(=O)/C(=C/c2ccc(Cl)cc2)C1
-20.7% (active)
CCCCCC(=O)c1ccc(OCCCN2CCN(C(=O)OCC)CC2)cc1
95.2% (inactive)
N=C(N)c1ccc(-c2ccc(-c3cccs3)o2)cc1
37.8% (inactive)
COc1ccc(N2C(=O)C3c4[nH]c5ccc(OCc6ccccc6)cc5c4C4CCC(C(C)C)CC4C3C2=O)cc1 (configuration not stated)
94% (inactive)
CCCCCCCCCCCCC1C/C=C\CCCC(=O)O1 (configuration not stated)
113% (inactive)
O=C(Nc1ccncc1)C(=O)c1cn(S(=O)(=O)c2ccc(F)cc2)c2ccccc12
52.9% (inactive)
ClC(Cl)(Cl)c1nc2nccnc2[nH]1
87.2% (inactive)
COc1cc(NC(=O)CCSc2nc3ccc(Cl)cc3c(=O)n2Cc2ccccc2)cc(OC)c1OC
63.7% (inactive)
CSCCCNC(=O)c1ccc2c(c1)/C(=C/c1[nH]c(C)cc1C)C(=O)N2
9.54% (active)

Lab request: please report growth under test system CAKI-1 renal for O=C(CC(NC(=O)OCc1ccccc1)C(=O)OCc1ccccc1)OCc1ccccc1 (configuration not stated)
99.3% (inactive)

Now the compound "O=C(Nc1cccc(-n2cc(-c3ccncc3)c(-c3ccc(O)c(Cl)c3)n2)c1)Nc1ccc(Cl)c(Cl)c1"
-21.1% (active)
